targetOrTestSystem: AhR receptor (Homo sapiens, UniProt P35869)
Construct: expression of native (Human Hepatoma Huh-7) AhR receptor reporter gene cells; endogenous in cells; host or cells: Human hepatoma Huh-7 reporter cells (firefly luciferase under receptor-specific response elements)
Sequence (P35869 11-848): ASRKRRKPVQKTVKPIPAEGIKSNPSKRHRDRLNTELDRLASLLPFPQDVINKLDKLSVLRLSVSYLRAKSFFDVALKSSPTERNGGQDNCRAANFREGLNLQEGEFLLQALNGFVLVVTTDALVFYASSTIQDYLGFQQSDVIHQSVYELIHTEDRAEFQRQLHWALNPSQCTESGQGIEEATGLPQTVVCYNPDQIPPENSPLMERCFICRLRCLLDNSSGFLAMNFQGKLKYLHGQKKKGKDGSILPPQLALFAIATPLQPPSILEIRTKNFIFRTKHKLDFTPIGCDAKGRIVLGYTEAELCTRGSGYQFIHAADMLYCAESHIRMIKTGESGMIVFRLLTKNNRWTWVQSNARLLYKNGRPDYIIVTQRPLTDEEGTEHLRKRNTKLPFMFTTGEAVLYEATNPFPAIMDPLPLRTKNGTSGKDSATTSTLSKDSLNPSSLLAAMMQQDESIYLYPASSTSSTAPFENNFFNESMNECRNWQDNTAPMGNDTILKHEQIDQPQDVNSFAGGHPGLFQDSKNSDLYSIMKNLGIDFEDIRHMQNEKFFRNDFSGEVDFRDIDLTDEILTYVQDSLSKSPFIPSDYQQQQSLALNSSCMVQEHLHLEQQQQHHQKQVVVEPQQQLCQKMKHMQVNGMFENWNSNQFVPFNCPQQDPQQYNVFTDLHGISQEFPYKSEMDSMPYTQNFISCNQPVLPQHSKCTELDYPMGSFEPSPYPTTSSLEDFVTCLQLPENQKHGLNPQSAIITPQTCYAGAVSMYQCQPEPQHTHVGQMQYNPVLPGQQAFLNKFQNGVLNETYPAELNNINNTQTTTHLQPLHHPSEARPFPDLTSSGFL
assay: AhR agonism assay (luciferase reporter gene cells)
Format: cell-based
protocolConditions: Human Hepatoma Huh-7 AhR reporter gene cells, 24 h incubation at 37° C., 0.1% DMSO; read-out: EC50
quantityName: EC50

Consider the worked cases shown below.
| compound | EC50 |
| --- | --- |
| COC(=O)c1csc(C(=O)c2cn(C(=O)[C@@H](N)C(C)C)c3ccccc23)n1 [Compound 4-2] | 1 to 1000 nM |
| O=C(c1nc(-c2ccco2)cs1)c1c[nH]c2ccccc12 [Compound 40] | 1 to 1000 nM |
| CC(C)c1cnc(C(=O)c2c[nH]c3ccccc23)s1 [Compound 10] | 10000 to 100000 nM |

Name the reported EC50 value associated with the compound COC(=O)c1csc(-c2csc(C(=O)c3c[nH]c4ccccc34)n2)n1 [Compound 32-2] 1 to 1000 nM

Now the compound COC(=O)c1csc(C(=O)c2cn(C3OC(COC(C)=O)C(OC(C)=O)C(OC(C)=O)C3OC(C)=O)c3ccccc23)n1 (stereo not drawn) [Compound 38-2] 1 to 1000 nM

Now the compound O=C(c1nc(C2CC2)cs1)c1c[nH]c2ccccc12 [Compound 41] 1 to 1000 nM

* * *

targetOrTestSystem: AhR receptor (Homo sapiens, UniProt P35869)
Construct: expression of native (Human Hepatoma Huh-7) AhR receptor reporter gene cells; endogenous in cells; host or cells: Human hepatoma Huh-7 reporter cells (firefly luciferase under receptor-specific response elements)
assay: AhR agonism assay (luciferase reporter gene cells)
Type: cell-based
protocolConditions: Human Hepatoma Huh-7 AhR reporter gene cells, 24 h incubation at 37° C., 0.1% DMSO; read-out: EC50
pEC50: −log10 of the molar value.
In this section we review reported pEC50 values for a set of molecules.

Name the reported pEC50 value associated with the molecule "CO/N=C(/c1nc(C(=O)OC)cs1)c1c[nH]c2ccccc12" 5.00 to 6.00

Now the molecule "COC(=O)COCn1cc(C(=O)c2nc(C(=O)OC)cs2)c2ccccc21" 6.00 to 9.00

Now the molecule "COC(=O)c1coc(-c2csc(C(=O)c3c[nH]c4ccccc34)n2)n1" 6.00 to 9.00
